Every entry's value here was drawn from ChEMBL document CHEMBL3826914.

assay.procedure: Dark toxicity against human HUT78 cells assessed as reduction in cell viability preincubated for 1 hr in dark after 48 hrs by MTT assay
Assay type: cell-based
assay.setup: read-out: LD50
What CC50 at 48 h was measured for each of the following?
Number in nM, nothing else.

Quick one: CC50 at 48 h of "O=C(c1ccc(C2=c3cc4c5c(c3[Se]c3c2cc2c6c3CCCN6CCC2)CCC[N+]=5CCC4)s1)N1CCCCC1.[Cl-]" ? 730

Quick one: CC50 at 48 h of "S=C(c1ccc(C2=c3cc4c5c(c3[Se]c3c2cc2c6c3CCCN6CCC2)CCC[N+]=5CCC4)s1)N1CCCCC1.[Cl-]" ? 1080

====

assay.procedure: Drug extrusion in SEB-stimulated human CD25 positive cells assessed as mean fluorescence intensity at 5 x 10^-8 M preincubated for 20 mins followed by growth in photosensitizer-free media for 30 mins by flow cytometric analysis relative to control
assay.setup: 0.5 h, 0.05 µM
endpoint.name: Flu intensity (a.u.)
Number in a.u., nothing else.

Quick one: Flu intensity of "CN1CCC(C)(C)c2cc3c(cc21)[Se]c1cc2c(cc1=C3c1ccc(C(=S)N3CCCCC3)s1)C(C)(C)CC[N+]=2C.[Cl-]" ? 12100

Quick one: Flu intensity of "CN1CCC(C)(C)c2cc3c(-c4ccc(C(=S)N5CCCCC5)s4)c4ccc(=[N+](C)C)cc-4[se]c3cc21.[Cl-]" ? 32200

Quick one: Flu intensity of "O=C(c1ccc(C2=c3cc4c5c(c3[Se]c3c2cc2c6c3CCCN6CCC2)CCC[N+]=5CCC4)s1)N1CCCCC1.[Cl-]" ? 4500

Quick one: Flu intensity of "S=C(c1ccc(C2=c3cc4c5c(c3[Se]c3c2cc2c6c3CCCN6CCC2)CCC[N+]=5CCC4)s1)N1CCCCC1.[Cl-]" ? 69000

====

Test system: HuT78
assay.setup: human, hut78, 0.5 h, 0.075 µM
So basically: is Flu intensity under 20000 a.u.? Then true. Not under? Then false.

Say whether its Flu intensity is strictly beneath 20000 a.u.. Entry: "S=C(c1ccc(C2=c3cc4c5c(c3[Se]c3c2cc2c6c3CCCN6CCC2)CCC[N+]=5CCC4)s1)N1CCCCC1.[Cl-]" false

Say whether its Flu intensity is strictly beneath 20000 a.u.. Entry: "CN1CCC(C)(C)c2cc3c(cc21)[Se]c1cc2c(cc1=C3c1ccc(C(=S)N3CCCCC3)s1)C(C)(C)CC[N+]=2C.[Cl-]" true

Say whether its Flu intensity is strictly beneath 20000 a.u.. Entry: "CN1CCC(C)(C)c2cc3c(-c4ccc(C(=S)N5CCCCC5)s4)c4ccc(=[N+](C)C)cc-4[se]c3cc21.[Cl-]" false

Say whether its Flu intensity is strictly beneath 20000 a.u.. Entry: "C[N+]1=c2cc3c(cc2C(C)(C)CC1)=C(c1ccc(C(=S)N2CCCCC2)s1)c1cc2c4c(c1[Se]3)CCCN4CCC2.[Cl-]" false

Say whether its Flu intensity is strictly beneath 20000 a.u.. Entry: "CN1CCC(C)(C)c2cc3c(cc21)[Se]c1cc2c(cc1=C3c1ccc(C(=O)N3CCCCC3)s1)C(C)(C)CC[N+]=2C.[Cl-]" true

Say whether its Flu intensity is strictly beneath 20000 a.u.. Entry: "CN1CCC(C)(C)c2cc3c(-c4ccc(C(=O)N5CCCCC5)s4)c4ccc(=[N+](C)C)cc-4[se]c3cc21.[Cl-]" true

Say whether its Flu intensity is strictly beneath 20000 a.u.. Entry: "C[N+]1=c2cc3c(cc2C(C)(C)CC1)=C(c1ccc(C(=O)N2CCCCC2)s1)c1cc2c4c(c1[Se]3)CCCN4CCC2.[Cl-]" false

Say whether its Flu intensity is strictly beneath 20000 a.u.. Entry: "O=C(c1ccc(C2=c3cc4c5c(c3[Se]c3c2cc2c6c3CCCN6CCC2)CCC[N+]=5CCC4)s1)N1CCCCC1.[Cl-]" true
